Target: human LPA1 (Homo sapiens)
Sequence (Q92633 whole entry): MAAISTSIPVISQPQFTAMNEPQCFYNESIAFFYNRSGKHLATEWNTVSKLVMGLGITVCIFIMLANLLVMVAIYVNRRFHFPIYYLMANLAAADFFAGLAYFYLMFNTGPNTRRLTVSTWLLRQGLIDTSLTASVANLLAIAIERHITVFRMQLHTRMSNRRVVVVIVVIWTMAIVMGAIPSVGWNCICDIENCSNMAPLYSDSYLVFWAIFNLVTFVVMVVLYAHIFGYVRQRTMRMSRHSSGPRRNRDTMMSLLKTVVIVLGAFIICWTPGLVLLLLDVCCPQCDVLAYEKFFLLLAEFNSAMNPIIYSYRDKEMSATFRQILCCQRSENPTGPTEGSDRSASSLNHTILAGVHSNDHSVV
Experiment: LPA1 functional antagonist assay (LPA-induced calcium flux)
Settings: CHO cells overexpressing human LPA1; inhibition of calcium flux induced by 10 nM LPA; read-out: hLPA1 IC50
MEASURED_ENDPOINT: log10(IC50) (log10 of the value in µM)
Recorded IC50 (log10, µM)

// below: answered compounds
Exam item: Give recorded log10(IC50) with human LPA1 (Homo sapiens) for the following compound: Cc1noc(-c2ccc(OC[C@@H]3CC[C@H](C(=O)O)C3)cn2)c1CNc1nccc(-c2ccccn2)n1 (relative stereo) [Example 33]
Marked response: -1.40

Exam item: Request - read-out log10(IC50) | tested on human LPA1 (Homo sapiens) | compound Cc1nc(-c2nnn(C)c2COC(=O)N2CCC3(CCC3)C2)ccc1O[C@H]1CC[C@H](CC(=O)O)C1 (racemic) [Example 61]
Marked response: -0.35

Exam item: Quick check: log10(IC50) on human LPA1 (Homo sapiens), item Cc1nc(-c2nnn(C)c2COC(=O)N(C)CC2CCC2)ccc1O[C@H]1CC[C@H](C(=O)O)C1 (single isomer, unassigned) [Example 78] ?
Marked response: -1.55

Exam item: Observed log10(IC50) on human LPA1 (Homo sapiens) for Cc1nc(-c2nnn(C)c2COC(=O)N(C)CC2CCCC2)cnc1O[C@@H]1CC[C@@H](C(=O)O)C1 (racemic) [Example 14] , please.
Marked response: -0.74

Exam item: Hello, I am looking for reported log10(IC50) with human LPA1 (Homo sapiens) for Cc1nc(-c2nnn(C)c2CNC(=O)OCc2ccccc2)cnc1O[C@@H]1CC[C@@H](C(=O)O)C1 (racemic) [Example 15] . Could you help?
Marked response: -0.15

Exam item: Item: Cc1nc(-c2nnn(C)c2COC(=O)N(C)CC(C)C)ccc1O[C@H]1CC[C@H](CC(=O)O)C1 (racemic) [Example 55] Test system: human LPA1 (Homo sapiens) Read-out: log10(IC50) Value: ?
Marked response: -0.87

Please state, for each entry, its recorded log10(IC50).
1. Cc1nc(-c2nnn(C)c2COC(=O)N(C)CC2CC2)ccc1O[C@H]1CCC[C@H]1CC(=O)O (racemic) [Example 89]
2. Cc1nc(-c2nnn(C)c2CNC(=O)OCC2(C)CC2)ccc1O[C@H]1CC[C@H](CC(=O)O)C1 (racemic) [Example 59]

Marked response:
1. -0.54
2. -0.56

For every item in the list below, what is its measured log10(IC50)?
1. Cc1nc(-c2onc(C)c2COC(=O)N(C)C2CCCC2)ccc1O[C@H]1CC[C@@H](C(=O)O)C1 (racemic) [Example 76]
2. CCC1(COC(=O)NCc2c(-c3ccc(O[C@H]4CC[C@H](CC(=O)O)C4)c(C)n3)nnn2C)CC1 (racemic) [Example 60]

Marked response:
-1.40
-0.58

For each entry beneath this line, provide reported log10(IC50).
1. CCCN(C)C(=O)OCc1c(-c2ccc(O[C@H]3CC[C@H](CC(=O)O)C3)c(C)n2)nnn1C (racemic) [Example 54]
2. CN(C(=O)OCc1c(-c2ccc(O[C@H]3CC[C@@H](C(=O)O)C3)cc2)nnn1C)C1CCCC1 (relative stereo) [Example 11]
3. Cc1nc(-c2nnn(C)c2COC(=O)N(C)CC2CCC2)ccc1O[C@H]1CC[C@H](CC(=O)O)C1 (single isomer, unassigned) [Example 7]

Marked response:
1: -0.53; 2: -0.41; 3: -0.12

Sourced from patent US12209072B2
